Assignment: determine reported %Inh for the given compounds.
test system: MARK4; details: concentration: 1 μM,replicates: in singlicate; n = 1;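 note: KINOMEscan kinase panel screen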
One number for each entry, in %.

As a guide, the following entries are already answered.
compound | %Inh, %
Cn1ccc2ncnc(Oc3ccc(NC(=O)Nc4cccc(C(F)(F)F)c4)c(Cl)c3)c21 | 0
Cc1nnc(-c2ccc3occ(-c4ccc(S(C)=O)cc4)c3n2)o1 (centres unmarked) | 0
COc1cc2c(Nc3ccc(NC(=O)c4ccccc4)cc3)ncnc2cc1OCCCN1CCOCC1 [GSK301329] | 0
COC(=O)Nc1nc2cc(Oc3ccc(NC(=O)Nc4cc(C(F)(F)F)ccc4Cl)cc3)ccc2[nH]1.Cl [GW697465] | 0
CN1CCN(CCNc2nc3cc(Oc4ccc(NC(=O)Nc5cc(C(F)(F)F)ccc5F)cc4)ccc3[nH]2)CC1.Cl.Cl [GW768504] | 32

Working through the 3 compounds below one at a time, give %Inh for each.
1. O=C1NCCc2[nH]c(-c3ccncc3)cc21
2. Cn1ccc2ncnc(Oc3ccc(NC(=O)Nc4cccc(C(F)(F)F)c4)c(F)c3)c21
3. Cc1ccc(C(=O)Nc2ccc(Oc3ccc4nc(NC(=O)C5CC5)cn4c3)c(F)c2)c(=O)n1-c1ccccc1

1. 11
2. 0
3. 15

---

system: MARK1; conditions: concentration: 1 μM,replicates: in singlicate; n = 1
Answer each item with its documented %Inh.
Give bare numbers, in %.

// solved cases for %Inh follow
compound | unit | observed.result
CC(C)S(=O)(=O)N1CCN(Cc2ccc3c(c2)nc(NC(=O)c2ccsc2)n3C[C@H](O)c2ccccc2)CC1 [GW635815] | % | 6
CC(C)c1nc(-c2cccc(NS(=O)(=O)c3ccccc3)c2)c(-c2ccnc(Nc3ccc4c(c3)CN(C)CC4)n2)s1 [GSK1649598] | % | 31
CN(c1ccc2c(c1)nc(NCc1ccc(F)cc1)n2C)c1ccnc(Nc2ccc(CS(C)(=O)=O)cc2)n1.Cl [GW813244] | % | 0
CS(=O)c1ccc(-c2coc3ccc(-c4n[nH]c(=O)o4)cc23)cc1 (centres unmarked) | % | 15
Cc1cccc(-c2nc(Nc3ccncc3)c3sccc3n2)n1 [GW869641] | % | 23
O=C(NOCC1CC1)c1cc(Br)c(F)c(F)c1Nc1ccc(I)cc1Cl | % | 0
Cl.Nc1n[nH]c2cc(-c3ccccn3)ccc12 [GSK2189892] | % | 0
Cc1nnc(-c2ccc3occ(-c4ccc(S(C)=O)cc4)c3n2)o1 (centres unmarked) | % | 0

Batch request: %Inh for each of the following compounds.
1. CS(=O)(=O)c1cccc(CNc2nc(Nc3ccc4c(c3)[C@@H]3C[C@@H]4CNC3=O)ncc2C(F)(F)F)c1
2. O=C1NCCc2[nH]c(-c3ccncc3)cc21

1: 8; 2: 22

Here are 6 compounds. What values of %Inh were reported for them?
1. O=C(Nc1cccc(C(F)(F)F)c1)c1cccc(Oc2ccc3nccn3n2)c1
2. NC(=O)Nc1sc(-c2ccc(F)cc2)cc1C(N)=O [GW789449]
3. CN(c1ccccc1CNc1nc(Nc2ccc3c(c2)CC(=O)N3)ncc1C(F)(F)F)S(C)(=O)=O
4. C[C@@H]1CNc2c(sc3ccc4nc(-c5ccncc5)ccc4c23)C(=O)N1
5. COc1cc2c(Nc3ccc(NC(=O)c4ccccc4)cc3)ncnc2cc1OCCCN1CCOCC1 [GSK301329]
6. CCOC(=O)N1CCC(n2cnc(-c3ccc(F)cc3)c2-c2ccnc(N)n2)CC1 [SB-219952]

[0, 0, 53, 0, 0, 15]

---

tested on: GRK4; details: concentration: 1 μM,replicates: in singlicate; n = 1
recorded.endpoint: %Inh (%)
Answers are plain numbers, in %.

For orientation, consider the following solved cases.
compound | observed.result
Nc1nccc(-c2ccc3c(N)n[nH]c3c2)n1 [GSK1034945] | 52
COC(=O)Nc1nc2cc(Oc3ccc(NC(=O)Nc4cc(C(F)(F)F)ccc4Cl)cc3)ccc2[nH]1.Cl [GW697465] | 0

For the compound Cl.Cl.NC[C@H](CC1CCCCC1)NC(=O)c1ccc(-c2ccnc3[nH]ccc23)s1 [GSK1581428] , give its reported %Inh.
91.9

---

system: RSK2(Kin.Dom.1-N-terminal); construct: gene RPS6KA3; settings: concentration: 1 μM,replicates: in singlicate; n = 1
Provide the reported %Inh of each item.
Answers are plain numbers, in %.

compound | unit | observed.result
CCNCC(Cc1ccccc1)NC(=O)c1cc(Br)c(-c2ccnc3[nH]ccc23)s1.Cl.Cl (centres unmarked) | % | 42
CCn1c(-c2nonc2N)nc2cncc(CNC3CCNCC3)c21.Cl | % | 16
Cn1ccc2ncnc(Oc3ccc(NC(=O)Nc4ccnc(C(F)(F)F)c4)c(Cl)c3)c21 | % | 0
Cn1ccc2ncnc(Oc3ccc(NC(=O)Nc4cnn(C(C)(C)C)c4)c(Cl)c3)c21 | % | 11
COc1cccc(C2=C(Nc3cccc(Cl)c3)C(=O)NC2=O)c1 | % | 25
COC(=O)c1cccc(NC(=O)NC2CCN(c3ccnc(NCc4ccc(F)cc4)n3)CC2)c1 | % | 0
Cc1nnc(-c2ccc3occ(-c4ccc(S(C)=O)cc4)c3n2)o1 (centres unmarked) | % | 0

Query compound follows.
Tell me its %Inh given CS(=O)(=O)c1cccc(CNc2nc(Nc3ccc4c(c3)[C@@H]3C[C@@H]4CNC3=O)ncc2C(F)(F)F)c1 as the entry.
84

---

test system: YANK1; construct: gene STK32A; settings: concentration: 1 μM,replicates: in singlicate; n = 1
recorded.endpoint: %Inh (%)
One number for each entry, in %.

compound | tgt | %Inh / %
O=C(Nc1ccccc1)c1cccc(Oc2ccc3nccn3n2)c1 | YANK1 | 0
CS(=O)c1ccc(-c2coc3ccc(-c4n[nH]c(=O)o4)cc23)cc1 (stereo not drawn) | YANK1 | 9

Hi! Can you tell me %Inh for each of these compounds?
1. Cn1ccc2ncnc(Oc3ccc(NC(=O)Nc4cnn(C(C)(C)C)c4)c(Cl)c3)c21
2. O=C(Nc1cccc(Oc2ccc3nccn3n2)c1)Nc1cccc(C(F)(F)F)c1
3. COc1cccc(C2=C(Nc3cccc(Cl)c3)C(=O)NC2=O)c1 [SB-341556]
4. CC(C)c1nc(-c2cccc(NS(=O)(=O)c3ccccc3)c2)c(-c2ccnc(Nc3ccc4c(c3)CN(C)CC4)n2)s1 [GSK1649598]
5. Cc1n[nH]c2cc(Nc3ccnc(Nc4cccc(CN5CCOCC5)c4)n3)ccc12 [GW682569]
6. NC(=O)Nc1sc(-c2ccc(F)cc2)cc1C(N)=O [GW789449]

1
0
5
20
9
4

Batch: %Inh for all items listed.
1. Cc1ccc(CC(=O)N2CCc3cc(-c4cn(C)c5ncnc(N)c45)ccc32)cc1 [GSK2634758]
2. O=C(NCC1CC1)c1ccc(-c2cc(C(=O)NC3CC3)ccc2F)cc1 [GW810445]
3. CS(=O)(=O)Nc1ccc(-c2ccnc3[nH]ccc23)cc1 [GSK993273]

15
0
12

Your task in this section: give %Inh for each listed record.
1. Cc1cccc2c(-c3ccncc3)c(-c3ccc(F)cc3)nn12.Cl [GW461487]
2. Nc1nccc(-c2ccc3c(N)n[nH]c3c2)n1 [GSK1034945]
3. NC(=O)c1ccc(-c2cc3ncnc(SCC(=O)O)c3s2)cc1
4. O=C(Nc1n[nH]c2cc(-c3ccco3)ccc12)C1CC1 [SB-737447]

27
21
0
0

Kindly give each listed record's %Inh.
1. Cc1ccc(Nc2ccnc(Nc3ccc4c(c3)CS(=O)(=O)C4)n2)cc1O.Cl [GW579362]
2. Cl.Cl.NC[C@H](CC1CCCCC1)NC(=O)c1ccc(-c2ccnc3[nH]ccc23)s1 [GSK1581428]
3. C[C@@H](Oc1cc(-n2cnc3cc(-c4ccncc4)ccc32)sc1C(N)=O)c1ccccc1Cl [GSK479719]
4. COc1cc2nccc(Nc3ccc(Oc4ccccc4)cc3)c2cc1OC.Cl [GI261656]

26
68
7
7

---

system: MST2; construct: gene STK3; conditions: concentration: 1 μM,replicates: in singlicate; n = 1
Quick rule: %Inh of at least 8% means 1 (yes), below that means 0 (no).

Worked examples, 5 compounds total:
compound | group.label
O=C(Nc1cccc(C(F)(F)F)c1)c1cccc(Oc2ccc3nccn3n2)c1 | 0 (no)
NC(=O)Nc1sc(-c2ccc(F)cc2)cc1C(N)=O | 1 (yes)
Cc1ccc(C(=O)Nc2ccc(Oc3ccc4nc(NC(=O)C5CC5)cn4c3)c(F)c2)c(=O)n1-c1ccccc1 | 1 (yes)
COC(=O)c1cccc(NC(=O)NC2CCN(c3ccnc(Nc4cc(OC)c(OC)c(OC)c4)n3)C2)c1 (stereo not shown) | 0 (no)
c1ccc(Oc2ccc(Nc3ccnc4ccc(-c5ccccn5)cc34)cc2)cc1 | 0 (no)

Given Cc1nnc(-c2ccc3occ(-c4ccc(S(C)=O)cc4)c3n2)o1 (stereo not shown) , state whether its %Inh is at least 8%.
0 (no)

Reported %Inh reaches at least 8% for COc1cc2c(Nc3ccc(NC(=O)c4ccccc4)cc3)ncnc2cc1OCCCN1CCOCC1 ?
0 (no)

Given the entry Cc1ccc(Nc2ccnc(Nc3ccc4c(c3)CS(=O)(=O)C4)n2)cc1O.Cl , answer whether its %Inh meets or surpasses 8%.
1 (yes)

Is reported %Inh greater than or equal to 8% here: CCOC(=O)N1CCC(n2cnc(-c3ccc(F)cc3)c2-c2ccnc(N)n2)CC1
0 (no)
